Cited source for all entries: PubChem BioAssay

- test.details: reduction of polyQ htt aggregates in cells – imaging, exon1htt(103Q)mCFP cells, high-content imaging, primary screen (AID 483);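 further: compound exposure lasted 3 days before fixation; percent of the per-plate median nuclei count of sample wells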
- measurement.setup: exon1htt(103Q)mCFP cell line, aggregate imaging, at 2 µM; measured here: cell count, toxicity
measured.attribute: nuclei count (%)
Numbers only; they are read as %.

Look over these answered cases.
{"columns": ["compound", "result"],
 "data": [
  ["Cc1cc(C(=O)CN2C(=O)c3ccccc3C2=O)c(C)n1Cc1cccs1", 112],
  ["COc1cc(C(=O)Nc2cccc(-c3nncn3C)c2)cc(OC)c1OC", 76.5],
  ["N#Cc1nc(-c2ccco2)oc1NCc1ccco1", 120],
  ["COC(=O)c1cc(OC)c(OCc2cc(C(=O)OC)oc2C)c(OC)c1", 106],
  ["COc1ccccc1CNC(=O)CCNC(=O)Cn1ccc2ccccc2c1=O", 107]
]}

Provide one value: measured nuclei count of COc1ccc(C2c3c(oc4ccccc4c3=O)C(=O)N2Cc2ccncc2)cc1OC (configuration not stated) 108

Supply nuclei count value. Item: NC(=O)c1sc2nc3c(c(-c4ccco4)c2c1N)CCC3 87.8

For the compound COC1CCCCC1Nc1cccc(SC)c1 (configuration not stated) , give its measured nuclei count value. 90.9

Answer with reported nuclei count of O=C1c2ccccc2C(Nc2ccc3c(c2)OCCO3)N1Cc1ccc2c(c1)OCO2 (configuration not stated) 102

Please supply the value of reported nuclei count for the item COc1ccccc1CN1C(=S)SC(C)(C)C1NO (configuration not stated) 88.5

Look up and state reported nuclei count for CCOc1ccc(NC(=O)C2CC(=O)N(C(C)C)C2)cc1 (configuration not stated) 91.8

Consider the compound CCc1nc(N)c(C#N)c(-c2ccncc2)c1C . State its measured nuclei count. 100

For COc1cccc(-n2nc(C(=O)Nc3ccc4c(c3)OCO4)c3ccccc3c2=O)c1 , write its nuclei count. 98.3
